// data source = PubChem BioAssay AID1159580

Below is a list of entries, each paired with its recorded normalized growth value.
Test: chemical genetic growth profiling, strain panel (AID 1159580);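 also: tested at 20 µM; growth read once vehicle control cultures reached saturation at 30 °C; 1 = growth at the plate median or of vehicle wells; lower values mean less growth of the strain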
Conditions: S. cerevisiae deletion strains, growth OD, locus YAL013W, strain DEP1, hits give low values
About 2,000 (36%) of roughly 5,500 compounds were called active. Roughly 18% stayed inconclusive and do not appear here. Some of the results follow.

compound: COC(=O)c1cc([N+](=O)[O-])ccc1N1CCOCC1
normalized growth: 1.01

compound: c1cc(C2CCCCC2)ccc1C1CCCCC1
normalized growth: 1.01

compound: C1CCC(C(CC2CCCCN2)C2CCCCC2)CC1 (stereo unspecified)
normalized growth: 0.789

compound: COc1ccc(C(=O)c2ccc(O)cc2)c(O)c1O
normalized growth: 1.04

compound: c1ccc([C@H]2CN3CCSC3=N2)cc1
normalized growth: 1.01

compound: CNS(=O)(=O)c1cc(Br)ccc1S(=O)c1ccccc1C(=O)O (stereo unspecified)
normalized growth: 1

compound: O=C(O)c1nccnc1C(=O)O
normalized growth: 0.993

compound: N#Cc1nccnc1Sc1ccc(Cl)cc1
normalized growth: 0.946

compound: COc1cccc(Nc2nc3ccccc3s2)c1
normalized growth: 0.728

compound: CC1=CC2C(C(C)C)CCC(C)(O)C2CC1 (stereo unspecified)
normalized growth: 1

compound: COc1ccc(C2C(=O)c3ccccc3C2=O)cc1
normalized growth: 0.997

compound: COc1cc([N+](=O)[O-])ccc1N1CCCC1
normalized growth: 0.898

compound: CCOc1ccc(NC(C)=O)cc1
normalized growth: 1.02

compound: CCNc1nc(Cl)nc(NCC)n1
normalized growth: 1

compound: CC(=O)OC1CCC2(C)C3CC(=O)C4(C)C(CC5OC6(CCC(C)CO6)[C@@H](C)C54)C3CC[C@H]2C1 (stereo partly specified)
normalized growth: 0.982

compound: COc1cccc(OC)c1C(=O)N[C@@H]1C(=O)N2[C@@H]1SC(C)(C)[C@@H]2C(=O)O
normalized growth: 0.994

compound: COC1(C)CCC2OC2(C)CCC2C1CC2(C)C (stereo unspecified)
normalized growth: 1

compound: NC1CC1c1ccccc1 (stereo unspecified)
normalized growth: 1.02

compound: COc1cccc(NC(N)=S)c1
normalized growth: 1.02

compound: CC(=O)[O][Hg][c]1ccccc1
normalized growth: 0.0588

compound: CNC(=O)[C@H]1O[C@@H](n2cnc3c(NCc4ccc(N)cc4)ncnc32)C(O)[C@H]1O (stereo partly specified)
normalized growth: 0.978

compound: C1CCN(CCC2CCCCN2)CC1 (stereo unspecified)
normalized growth: 0.999

compound: CC(=O)O[C@H]1CC[C@]2(C)C3CC[C@@]4(C)C(CC5O[C@@]6(CCC(C)CO6)[C@@H](C)C54)C3CC[C@H]2C1 (stereo partly specified)
normalized growth: 0.995

compound: CC(N)C(O)c1ccc(O)c(O)c1 (stereo unspecified)
normalized growth: 1

compound: COc1cc2c(cc1OC)-c1c(oc3c4c(ccc3c1=O)OC(C(C)C)C4)CO2 (stereo unspecified)
normalized growth: 1.01

compound: COc1cccc(NC(=O)NC2Cc3ccccc3C2)c1
normalized growth: 0.975

compound: CN(C(=O)Nc1ccccc1)n1cnc2ccccc2c1=O
normalized growth: 0.999

compound: C[C@]12CCC(=O)C=C1CC[C@@H]1[C@@H]2[C@@H](O)C[C@@]2(C)[C@H]1CC[C@]2(O)C(=O)CO
normalized growth: 1

compound: O=c1cc(C(F)(F)F)[nH]c2c(Cl)cccc12
normalized growth: 0.884

compound: COC(=O)c1ccccc1CSc1nccc(C(F)(F)F)n1
normalized growth: 0.963

compound: COc1ccc2c(=O)ccoc2c1
normalized growth: 1.02

compound: O=C(COC(=O)c1ccccc1C(=O)c1ccccc1)c1ccccc1
normalized growth: 0.984

compound: Cc1onc(-c2c(Cl)cccc2Cl)c1C(=O)N[C@@H]1C(=O)N2[C@@H]1SC(C)(C)[C@@H]2C(=O)O
normalized growth: 1.02

compound: COc1cc(O)cc(OC)c1OC
normalized growth: 1.05

compound: CN(C)/C=C1/C(=O)NN=C1CSc1ccccn1
normalized growth: 1

compound: COc1ccc(C(=O)O)c(O)c1OC
normalized growth: 1.05

compound: O=C(O)c1cc(=O)c2c(Cl)cc(Cl)cc2[nH]1
normalized growth: 1

compound: Cc1ccc(N=Nc2c(C)[nH]n(C)c2=O)cc1
normalized growth: 0.931

compound: CCN(CC)C(=O)c1ccc(O)c(OC)c1
normalized growth: 1.01

compound: COc1cccc(C(=O)N/N=C(/C)c2ccccc2O)c1
normalized growth: 0.975

compound: Cc1onc(-c2ccccc2Cl)c1C(=O)N[C@@H]1C(=O)N2[C@@H]1SC(C)(C)[C@@H]2C(=O)O
normalized growth: 1.01

compound: O=C(O)c1cc(=O)c2cccc(O)c2[nH]1
normalized growth: 0.999

compound: O=C1CCCN1c1ccc(Cl)c(Cl)c1
normalized growth: 0.987

compound: NC1C[C@H]1c1ccccc1 (stereo partly specified)
normalized growth: 1.01

compound: O=C(O)/C(=C/c1c(C(=O)O)[nH]c2cc(Cl)cc(Cl)c12)c1ccccc1
normalized growth: 0.99

compound: O/N=C\c1sccc1Oc1ccccc1
normalized growth: 0.964

compound: COc1cc(OC)cc(N2C(=O)C=CC2=O)c1
normalized growth: 0.0543

compound: Cc1[nH]n(C)c(=O)c1N=Nc1ccc(Cl)cc1
normalized growth: 0.892

compound: CC(C)(C)C1=NN(c2ccccc2)C(=O)C1
normalized growth: 0.973

compound: CC[C@@H](CO)NC(=O)[C@@H]1C=C2c3cccc4[nH]cc(c34)C[C@H]2N(C)C1
normalized growth: 0.989

compound: Cc1cc(C)cc(N2C(=O)CC(Sc3ccccc3C(=O)O)C2=O)c1 (stereo unspecified)
normalized growth: 0.955
